Taken from ChEMBL document CHEMBL1201862.

Property: GI50; scope: individual compounds
system: OVCAR-4; experiment: NCI tumour cell line growth inhibition, 48 h
Active and inactive are the calls of the source. Rule as the data show it: active = GI50 up to about 1.1 µM and inactive = higher.
propertyMeasured: GI50

CC(=O)Nc1ccc(/N=N\c2c(O)c(S(=O)(=O)O)cc3cc(S(=O)(=O)O)ccc23)cc1 : > 100 µM (inactive)
N#Cc1c(N2CCCC2)nsc1Nc1ccc(F)cc1 : > 100 µM (inactive)
CCC(C)CCOC(=O)c1ccc(/N=C\c2ccc(/C=N/c3ccc(C(=O)OCCC(C)CC)cc3)cc2)cc1 (stereo not given) : > 100 µM (inactive)
COC(=O)C(=O)CC(=O)CCn1ncc(Cl)c(Cl)c1=O : 4.62 µM (inactive)
Cc1ccc(/C(O)=C/c2nc3ccccc3oc2=O)cc1 : > 100 µM (inactive)
Cc1ccc(SCC(CF)OC(C)n2cnc3c(Cl)nc(N)nc32)cc1 (stereo not given) : 16 µM (inactive)
O=C1Nc2ccccc2/C1=N/NC(=O)c1ccccc1O : 75.5 µM (inactive)
COC(=O)NC(=O)c1cn(CCCOC(=O)CCCCCCCCC(=O)OCCCn2cc(C(=O)NC(=O)OC)c(=O)[nH]c2=O)c(=O)[nH]c1=O : > 100 µM (inactive)
Cc1c(C(=O)Nc2ccc(Cl)cc2)nc(N)nc1-c1cccc(Cl)c1 : > 100 µM (inactive)
Cc1nc2c(nc1C)-c1[nH]c3c(c1C(=O)C2=O)CCCC3=O : 1.6 µM (inactive)

----------
test system: U-251; experiment: NCI tumour cell line growth inhibition, 48 h
Active and inactive are the calls of the source. Cut-off read from the data, not from the text of the source: active = GI50 up to about 1.1 µM and inactive = higher.
Outcomes: class 1 (active), class 0 (inactive)

COc1ccc2c(CCNC(C)=O)c(C(C)=O)[nH]c2c1 : class 0
CCCCCCCCCCCCCCC[C@@H](O)C[N+](C)(C)CCO : class 0
O=C(CCC(=O)C(C(=O)c1ccccc1)c1ccccc1)Nc1cccc(C(F)(F)F)c1 (centres undefined) : class 0
Cc1ccc(/N=N\c2c(O)c(S(=O)(=O)O)cc3cc(S(=O)(=O)O)ccc23)c(C)c1 : class 0
C[N+]12CCCCC1C(CN1C(=O)Cc3c4ccccc4c(c4ccccc34)CC1=O)CCC2 (centres undefined) : class 0
CN/N=C(\C)CC(=O)Nc1cccc(Cl)c1C : class 0
O=c1[nH]c(=S)c2cc3c(=S)[nH]c(=O)n(CCO)c3nc2n1CCO : class 0
O=C(c1ccc(/N=C/c2ccccc2O)cc1)c1ccc(/N=C/c2ccccc2O)cc1 : class 0
CC(=O)OCC(OC(C)=O)C(OC(C)=O)C(OC(C)=O)C(=O)CNn1c(-c2ccccc2Cl)nc2ccc(Br)cc2c1=O (centres undefined) : class 0
CC12CCC(=O)N1c1ccc([N+](=O)[O-])cc1N2 (centres undefined) : class 0
c1ccc(/N=C2\SC3=NCCN3\C2=N/c2ccccc2)cc1 : class 0
O=c1[nH]nc(-c2ccccc2)n1-c1ccncc1 : class 0
O=C(c1ccccc1)N(C(=O)c1ccccc1)c1nc(SCc2ccccc2)ns1 : class 0
CC(=O)Nc1ccc(/N=N\c2c(O)c(S(=O)(=O)O)cc3cc(S(=O)(=O)O)ccc23)cc1 : class 0
O=C1Nc2ccccc2/C1=N/NC(=O)c1ccccc1O : class 0
COc1ccccc1/N=C1\SCCN1C(=S)Nc1ccc(S(=O)(=O)/N=C/N(C)C)cc1 : class 0
CCOc1c(Br)cc(Br)cc1C=C(C#N)C#N : class 0
CC/C(Cl)=N\OC(=O)Nc1ccc(F)c([N+](=O)[O-])c1 : class 0
CCCC(CCC(N)=O)(CCC(N)=O)[N+](=O)[O-] : class 0
C=CCN1CCC23c4c5ccc(O)c4OC2C(=NN=C2CCC4(O)C6Cc7ccc(O)c8c7C4(CCN6CC=C)C2O8)CCC3(O)C1C5 (centres undefined) : class 0
O=C1N/C(=N/N=C/c2c[nH]c3ccccc23)N/C1=C\c1c[nH]c2ccccc12 : class 0
CN(C)CC1CCCC(CN(C)C)C1=NOC(=O)c1ccccc1 (centres undefined) : class 0
CN(CCNC(=S)c1cn(C)c2c1ccc1ccccc12)CCNC(=S)c1cn(C)c2c1ccc1ccccc12 : class 0
CCOC(=O)C1N(S(=O)(=O)c2ccc(C)cc2)CCC12c1ccccc1N(C(C)=O)C2c1ccc(OC)c(OC)c1 (centres undefined) : class 0
COc1cc(C2CC(C)(N3CCCC3)Oc3cc4c(cc32)OCO4)cc(OC)c1OC (centres undefined) : class 1
Cc1ccc(SCC(CF)OC(C)n2cnc3c(Cl)nc(N)nc32)cc1 (centres undefined) : class 0
C=CC1=CC(C)C[C@]1(O)C(=O)OC (some centres undefined) : class 1
COc1cc(O)c2c(c1)C(=O)C=C(Cl)C2=O : class 0
O=C(CC12C3C4C1C1C2C3C41CC(=O)NO)NO (centres undefined) : class 0
CC(=O)/C=C/C=C(\C)CC/C=C(\C)CC(C)C : class 0
COc1ccc(-c2c(=O)[nH]n3c(=S)[nH]c(-c4ccccc4)nc23)cc1OC : class 0
FC(F)(F)c1ccc2c(c1)nc(-c1ccc(Cl)cc1)n2CC1CCCN2CCCCC12 (centres undefined) : class 0
CC(/C=N/N(C)C1=NCCCN1)=N/N(C)C1=NCCCN1 : class 0
O=C(ON=C1c2ccccc2C(Br)C(Br)c2ccccc21)c1ccccc1 (centres undefined) : class 0
CCCCN(CCCC)CCCn1cnc2ncccc2c1=O : class 0
N#CC(C(=N/O)/C(=N/O)C(C#N)c1ccc(Cl)cc1)c1ccc(Cl)cc1 (centres undefined) : class 0
Cc1ccccc1OC(C)C(=O)NN1C(=O)CSC1c1ccccc1 (centres undefined) : class 0
CC(=O)Nc1ccc(OCC(O)CO)cc1 (centres undefined) : class 0
Cc1cc(=O)[nH]c2cc(NC(=O)C(CCCNC(=N)N)NC(=O)OCc3ccccc3)ccc12 (centres undefined) : class 0
C=CCOCn1cnc2c(N)ncnc21 : class 0
CCOC(=O)NC(=O)c1cn(CCCO)c(=O)[nH]c1=O : class 0
O=c1[nH]c2c(c3ccccc13)CCc1ccccc1-2 : class 0
CC(C1CCCC1=O)C1CCCC1=O (centres undefined) : class 0
O=C1C(Cl)=C(N2C(=O)CCC2=O)C(=O)c2ccccc21 : class 0
